- Study System: Delta-type opioid receptor (Mus musculus, UniProt P32300)
- Sequence (P32300 whole entry): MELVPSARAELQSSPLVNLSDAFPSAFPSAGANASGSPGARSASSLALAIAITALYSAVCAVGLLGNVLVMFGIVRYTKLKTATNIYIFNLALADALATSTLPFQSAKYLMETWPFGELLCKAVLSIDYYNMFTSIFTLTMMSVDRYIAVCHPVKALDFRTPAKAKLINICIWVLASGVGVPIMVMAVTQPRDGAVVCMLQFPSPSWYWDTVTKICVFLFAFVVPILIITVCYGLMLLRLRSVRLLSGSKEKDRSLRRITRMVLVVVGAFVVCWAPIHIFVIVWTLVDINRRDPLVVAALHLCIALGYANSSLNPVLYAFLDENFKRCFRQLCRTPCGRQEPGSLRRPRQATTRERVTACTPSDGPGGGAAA
- Assay Info: Antagonist activity at delta opioid receptor in ddy mouse vas deferens assessed as inhibition of DPDPE-induced electrically-stimulated contraction
Observable: IC50 (µM)
Return type: number; implicit unit µM.

// query Find the recorded IC50 belonging to "Oc1ccc2c3c1O[C@H]1c4c(c5cc(F)cc6c5n4CCC6)C[C@@]4(O)[C@@H](C2)N(CC2CC2)CC[C@]314" and report it.
// result 8.8

----------
- Assay Info: Metabolic stability in human liver microsomes assessed as time course of compound elimination at 1 uM by HPLC
- Format: ADME, Microsome
- Setup Conditions: read-out: Ke (converted)
Below is a list of entries, each paired with its recorded k el at 1 µM value.
Return type: number; implicit unit s⁻¹.

These recorded examples may help you get a feel for the data.
Chemical Structure: Oc1ccc2c3c1O[C@H]1c4c(c5c(Cl)ccc6c5n4CCC6)C[C@@]4(O)[C@@H](C2)N(CC2CC2)CC[C@]314
k el at 1 µM [s⁻¹]: 0.00045
--
Chemical Structure: COc1cc2c3c(c1)c1c(n3CCC2)[C@@H]2Oc3c(O)ccc4c3[C@@]23CCN(CC2CC2)[C@H](C4)[C@]3(O)C1
k el at 1 µM [s⁻¹]: 0.000552
--
Chemical Structure: COc1ccc2c3c1O[C@H]1c4c(c5cccc6c5n4CCC6(C)C)C[C@@]4(O)[C@@H](C2)N(CC2CC2)CC[C@]314
k el at 1 µM [s⁻¹]: 0.00103

// query Find the recorded k el at 1 µM belonging to "Oc1ccc2c3c1O[C@H]1c4c(c5ccc(Cl)c6c5n4CCC6)C[C@@]4(O)[C@@H](C2)N(CC2CC2)CC[C@]314" and report it.
// result 0.000483

// query Continue with "Cc1ccc2c3c1c1c(n3CCC2)[C@@H]2Oc3c(O)ccc4c3[C@@]23CCN(CC2CC2)[C@H](C4)[C@]3(O)C1"
// result 0.000565

// query Continue with "COc1ccc2c3c1c1c(n3CCC2)[C@@H]2Oc3c(O)ccc4c3[C@@]23CCN(CC2CC2)[C@H](C4)[C@]3(O)C1"
// result 0.000475

// query Continue with "COc1ccc2c3c1O[C@H]1c4c(c5c(C(F)(F)F)ccc6c5n4CCC6)C[C@@]4(O)[C@@H](C2)N(CC2CC2)CC[C@]314"
// result 0.00228
